- ASSAY SYSTEM: EGFR K757R (Homo sapiens, UniProt P00533, K757R)
- Construct: expressed in transfected cells; host or cells: Ba/F3
- EXPERIMENTAL DETAILS: Ba/F3 drug screening, Cell Titer Glo, IC50 Mut/WT
- Format: cell-based
- MEASUREMENT CONDITIONS: PACC; K757R; Ba/F3; 72 hours
MEASURED PROPERTY: ratio of IC50 for cells with mutant EGFR to IC50 for cells with wildtype EGFR (Mut/WT)

{"INPUT SMILES": "CN(C)C/C=C/C(=O)Nc1cc2c(Nc3ccc(Cl)c(Br)c3)ncnc2cn1", "OBS VALUE": 0.3019}
{"INPUT SMILES": "COc1cc2ncnc(Nc3ccc(F)c(Cl)c3)c2cc1NC(=O)/C=C/CN1CCCCC1", "OBS VALUE": 0.04087}
{"INPUT SMILES": "COc1cc2ncnc(Nc3cccc(Cl)c3F)c2cc1OC(=O)N1CCN(C)C[C@H]1C", "OBS VALUE": 0.7085}
{"INPUT SMILES": "CNC(=O)CN1CCC(Oc2cc3c(Nc4cccc(Cl)c4F)ncnc3cc2OC)CC1", "OBS VALUE": 0.3144}
